- Assay Comment: Displacement of Ethidium bromide from G5C5 (5'-AAAGGGGG-CCCCCTTT-3') DNA (unknown origin)/EtBr complex assessed as decrease in initial absorbance of DNA by crystal violet staining based analysis
Measure Name: C50
Record the result as number plus unit.

CN(C)c1ccc(C(=C2C=CC(=[N+](C)C)C(c3ccccc3)=C2)c2ccc(N(C)C)c(-c3ccccc3)c2)cc1-c1ccccc1	3.36 µM

Entry "CN(C)c1ccc(C(=C2C=CC(=[N+](C)C)C=C2)c2ccc(N(C)C)c(-c3ccccc3)c2)cc1" , C50 reported as 2.99 µM

Entry "CC1=CC(=[N+](C)C)C=CC1=C(c1ccc(N(C)C)cc1C)c1ccc(N(C)C)cc1C" , C50 reported as 7.21 µM

Entry "CN(C)c1ccc(C(=C2C=CC(=[N+](C)C)C=C2)c2ccc3cc(N(C)C)ccc3c2)cc1" , C50 reported as 0.88 µM

Entry "Cc1cc(N(C)C)cc(C)c1C(=C1C=CC(=[N+](C)C)C=C1)c1ccc(N(C)C)cc1" , C50 reported as 2.05 µM

Entry "CN(C)c1ccc(C(=C2C=CC(=[N+](C)C)C=C2)c2ccc(N(C)C)c(-c3ccccc3)c2)cc1-c1ccccc1" , C50 reported as 2.09 µM
